test: Qualitative solubility determination of Nor-UDCA with 20 solvents; assay type: physicochemical; details: organic solvent or mixture, thermodynamic from solid; solvent Methanol
RESULT TYPE: solubility
The reply should read as a number followed by its unit.

I'd like to know its solubility. The molecule in question is CC(CC(=O)O)[C@H]1CCC2[C@H]3C(CC[C@@]21C)[C@@]1(C)CCC(O)C[C@H]1C[C@@H]3O (stereo partly shown)
70 mg/mL

----------
assay: Qualitative solubility determination of Nor-UDCA with 20 solvents; format: physicochemical; details: organic solvent or mixture, thermodynamic from solid; solvent Toluene
RESULT TYPE: solubility

I'd like to know its solubility. The compound in question is CC(CC(=O)O)[C@H]1CCC2[C@H]3C(CC[C@@]21C)[C@@]1(C)CCC(O)C[C@H]1C[C@@H]3O (stereo partly shown) [Nor-UDCA]
< 12 mg/mL
